# Test system: SMMC-7721 (hepatocellular carcinoma) cells
# assay_comment: MTT cytotoxicity assay, SMMC-7721
# Assay type: cell-based, human
# study_conditions: Homo sapiens; SMMC-7721, MTT, 48 h; read-out: IC50 against SMMC-7721
test_readout: IC50

Recorded results for 10 molecules are shown here.
>>> reading("O=C(c1ccc2c(c1)OCO2)[C@H]1CO[C@H](c2ccc3c(c2)OCO3)[C@H]1CO [Compound 9, (+)-epi-sesaminone]")
"> 40 µM"
>>> reading("COc1cc([C@H]2c3cc(O)c(OC)cc3C[C@@H](CO)[C@@H]2CO)ccc1O [Compound 7, (+)-isolariciresinol]")
"> 40 µM"
>>> reading("COc1cc(C[C@@H]2CO[C@@H](c3ccc(O)c(OC)c3)[C@@H]2CO)ccc1O [Compound 8, (−)-lariciresinol]")
"> 40 µM"
>>> reading("CC(=O)O[C@@]12C[C@@H](C)[C@@]3(O)[C@@H](C=C(CO)C[C@]4(O)C(=O)C(C)=C[C@@H]34)[C@@H]1C2(C)C")
"18.1 µM"
>>> reading("CC(=O)O[C@H]1C(=O)[C@@]2(C)[C@H]([C@H](OC(=O)c3ccccc3)[C@]3(O)C[C@H](OC(=O)[C@H](O)[C@@H](NC(=O)c4ccccc4)c4ccccc4)C(C)=C1C3(C)C)[C@]1(OC(C)=O)CO[C@@H]1C[C@@H]2O [Taxol, taxol, reference compound]")
"< 0.008 µM"
>>> reading("C=C(C)[C@]12C[C@@H](C)[C@@]34OC5(CCCCCCC[C@@H](C)[C@H]6[C@H](C)[C@H](O)[C@@](O)([C@H](O)[C@@]7(COC(=O)/C=C/c8ccccc8)O[C@H]7[C@H]3[C@H]1O5)[C@@H]64)O2 [Compound 1, wikstroelide Q]")
"> 40 µM"
>>> reading("C=C(C)[C@]12C[C@@H](C)[C@@]34OC5(CCCCCCC[C@H](C)[C@H]6[C@H](C)[C@H](OC(=O)c7ccccc7)[C@@](O)([C@H](O)[C@@]7(CO)O[C@H]7[C@H]3[C@H]1O5)[C@@H]64)O2 [Compound 2, pimelea factors P2]")
"17.5 µM"
>>> reading("CCCCC/C=C/C=C/C(=O)O[C@@H]1[C@@H](C)[C@@]2(O)[C@@H](C=C(CO)C[C@]3(O)C(=O)C(C)=C[C@@H]23)[C@@H]2C(C)(C)[C@]12OC(C)=O")
"15.1 µM"
>>> reading("C=C(C)[C@@]12C[C@@H](C)[C@@]34OC5(CCCCCCC[C@@H](C)[C@H]6[C@H](C)[C@H](OC(=O)c7ccccc7)[C@@](O)([C@H](O)[C@@]7(CO)O[C@H]7[C@H]3[C@H]1O5)[C@@H]64)O2")
"14.9 µM"
>>> reading("COc1ccc(C[C@@H]2COC(=O)[C@H]2Cc2ccc(OC)c(O)c2)cc1O")
"> 40 µM"

From here, focus on the item given below.
Readout IC50 for COc1cc([C@H]2OC[C@H]3[C@@H]2CO[C@H]3c2ccc(O)c(OC)c2)ccc1O [Compound 6, (+)-epipioresinol] , test system SMMC-7721 (hepatocellular carcinoma) cells, was > 40 µM
